- Tested on: P388
- assay method text: Cytotoxicity against mouse P388 cells
- Assay type: functional
- condition: read-out: ED50 (the source's name)
readout kind: EC50 (µg/mL)
Reply with just the number (in µg/mL).

[
  {
    "structure smiles": "COc1ccc2c3ccnc4ccc(=O)n(c2c1)c43",
    "EC50 / µg/mL": 1.4
  },
  {
    "structure smiles": "COc1ccc2c3cc[n+]([O-])c4ccc(=O)n(c2c1)c34",
    "EC50 / µg/mL": 11.7
  },
  {
    "structure smiles": "O=c1ccc2c3c(cc[n+]2[O-])c2ccc(O)cc2n13",
    "EC50 / µg/mL": 12
  }
]

Turning now to a further record.
*Q* Look up EC50 for this compound: `O=c1ccc2nccc3c4ccc(O)cc4n1c23`
*A* 1.5

###

Reported EC50 values for the following compounds.
- assay method text: Cytotoxicity against human melanoma cells
- Format: functional
- condition: Melanoma cell, read-out: ED50 (the source's name)
Write the figure, then the unit, nothing else.

[
  {
    "compound": "C=C1[C@@H](O)[C@@]2(O)OC[C@]34[C@H]2[C@@]2(C)[C@H](O)C(=O)C=C(C)[C@@H]2C[C@H]3OC(=O)[C@H](O)[C@@]14O [EURYCOMANONE]",
    "endpoint value": "8.2 µg/mL"
  },
  {
    "compound": "COc1ccc2c3cc[n+]([O-])c4ccc(=O)n(c2c1)c34",
    "endpoint value": "6.5 µg/mL"
  }
]

*Q* Quick check: EC50 of `O=c1ccc2nccc3c4ccc(O)cc4n1c23` ?
*A* 5.4 µg/mL

*Q* Quick check: EC50 of `O=c1ccc2c3c(cc[n+]2[O-])c2ccc(O)cc2n13` ?
*A* 7 µg/mL
